Every entry's value here was drawn from ChEMBL document CHEMBL1134305.

- assaySystem: Sigma 2 receptor
- testSummary: Binding affinity for sigma 2 opioid receptor, measured on rat liver membranes using [3H]- DTG as radioligand in the presence of (+)-pentazocine

{"columns": ["compound", "assaySystem", "relationalOperator", "Ki / nM"],
 "data": [
  ["O=C(Cc1c[nH]c2ccc(Br)cc12)NC1CCN(Cc2ccccc2)CC1", "Sigma 2 receptor", "=", 678],
  ["O=C(Cc1ccsc1)NC1CCN(Cc2ccccc2)CC1", "Sigma 2 receptor", "=", 337],
  ["O=C(Cc1cccc(Cl)c1)NC1CCN(Cc2cccc(I)c2)CC1", "Sigma 2 receptor", "=", 30.3],
  ["O=C(Cc1ccccc1)NC1CCN(Cc2ccc(F)cc2)CC1", "Sigma 2 receptor", "=", 82.9],
  ["O=C(Cc1ccccc1)NC1CCN(Cc2ccccc2F)CC1", "Sigma 2 receptor", "=", 683],
  ["O=C(Cc1ccccc1)NC1CCN(Cc2ccc(Cl)c(Cl)c2)CC1", "Sigma 2 receptor", "=", 423],
  ["COc1ccc2[nH]cc(CC(=O)NC3CCN(Cc4ccccc4)CC3)c2c1", "Sigma 2 receptor", ">", 1000],
  ["O=C(Nc1cccc2ccccc12)NC1CCN(Cc2ccccc2)CC1", "Sigma 2 receptor", "=", 25],
  ["O=C(Cc1ccccc1F)NC1CCN(Cc2ccc(F)cc2)CC1", "Sigma 2 receptor", "=", 140],
  ["O=C(Cc1cccc(F)c1)NC1CCN(Cc2ccc(I)cc2)CC1", "Sigma 2 receptor", "=", 168],
  ["O=C(Cc1cccc2ccccc12)NC1CCN(Cc2ccccc2)CC1", "Sigma 2 receptor", "=", 39.4],
  ["O=C(CSc1ncccn1)NC1CCN(Cc2ccccc2)CC1", "Sigma 2 receptor", ">", 1000],
  ["O=C(Cc1ccccc1)NC1CCN(Cc2cccc(F)c2)CC1", "Sigma 2 receptor", ">", 1000],
  ["O=C(Cc1ccc2ccccc2c1)NC1CCN(Cc2ccccc2)CC1", "Sigma 2 receptor", "=", 112],
  ["O=C(Cc1ccccc1)NC1CCN(Cc2ccc(F)c(F)c2)CC1", "Sigma 2 receptor", "=", 232],
  ["O=C(Cc1cccc(F)c1)NC1CCN(Cc2ccc(F)cc2)CC1", "Sigma 2 receptor", "=", 31],
  ["O=C(Cc1ccncc1)NC1CCN(Cc2ccccc2)CC1", "Sigma 2 receptor", ">", 1000],
  ["O=C(Cc1cccc(Cl)c1)NC1CCN(Cc2ccc(F)cc2)CC1", "Sigma 2 receptor", "=", 9.38],
  ["O=C(Cc1cccc(F)c1)NC1CCN(Cc2cccc(I)c2)CC1", "Sigma 2 receptor", "=", 50.3],
  ["O=C(Cc1ccccc1)NC1CCN(Cc2ccccc2C(F)(F)F)CC1", "Sigma 2 receptor", ">", 1000],
  ["O=C(Cc1ccccc1)NC1CCN(Cc2ccccc2I)CC1", "Sigma 2 receptor", "=", 631],
  ["O=C(Cc1ccccc1)NC1CCN(Cc2ccc(I)cc2)CC1", "Sigma 2 receptor", "=", 694],
  ["O=C(Cc1cccs1)NC1CCN(Cc2ccccc2)CC1", "Sigma 2 receptor", "=", 393],
  ["O=C(Cc1ccccc1)NC1CCN(Cc2cccc(C(F)(F)F)c2)CC1", "Sigma 2 receptor", "=", 513],
  ["O=C(Cc1ccccn1)NC1CCN(Cc2ccccc2)CC1", "Sigma 2 receptor", ">", 1000],
  ["O=C(Cc1cc(=O)oc2cc(O)ccc12)NC1CCN(Cc2ccccc2)CC1", "Sigma 2 receptor", ">", 1000],
  ["O=C(Cc1ccccc1)NC1CCN(Cc2ccc([N+](=O)[O-])cc2)CC1", "Sigma 2 receptor", "=", 319],
  ["O=C(Cc1ccccc1)NC1CCN(Cc2ccccc2)CC1", "Sigma 2 receptor", "=", 240],
  ["O=C(Cc1cccc(Br)c1)NC1CCN(Cc2ccc(F)cc2)CC1", "Sigma 2 receptor", "=", 6.06],
  ["O=C(Cc1ccc(I)cc1)NC1CCN(Cc2ccccc2)CC1", "Sigma 2 receptor", "=", 61.3],
  ["O=C(Cc1ccccc1)NC1CCN(Cc2ccc3c(c2)OCO3)CC1", "Sigma 2 receptor", "=", 171],
  ["O=C(Cc1ccccc1)NC1CCN(CCc2ccccc2)CC1", "Sigma 2 receptor", "=", 107],
  ["COc1ccc2c(c1)C(CC(=O)NC1CCN(Cc3ccccc3)CC1)CC2=O (stereo not given)", "Sigma 2 receptor", "=", 416],
  ["O=C(Cc1cccnc1)NC1CCN(Cc2ccccc2)CC1", "Sigma 2 receptor", ">", 1000],
  ["O=C(Cc1cccc(Cl)c1)NC1CCN(Cc2ccc(I)cc2)CC1", "Sigma 2 receptor", "=", 257],
  ["OC(CCCN1CCC(O)(c2ccc(Cl)cc2)CC1)c1ccc(F)cc1 (stereo not given) [HYDROXYHALOPERIDOL]", "Sigma 2 receptor", "=", 28.6],
  ["O=C(Cc1ccccc1F)NC1CCN(Cc2cccc(I)c2)CC1", "Sigma 2 receptor", "=", 181],
  ["O=C(Cc1ccccc1)NC1CCN(Cc2cccc(I)c2)CC1", "Sigma 2 receptor", "=", 191],
  ["O=C(Cc1c[nH]cn1)NC1CCN(Cc2ccccc2)CC1", "Sigma 2 receptor", ">", 1000],
  ["O=C(Cc1ccccc1)NC1CCN(Cc2ccc3ccccc3c2)CC1", "Sigma 2 receptor", "=", 189],
  ["O=C(Cc1c[nH]c2ccccc12)NC1CCN(Cc2ccccc2)CC1", "Sigma 2 receptor", ">", 1000],
  ["O=C(Cc1ccccc1F)NC1CCN(Cc2ccc(I)cc2)CC1", "Sigma 2 receptor", "=", 233],
  ["O=C(Cc1cccc(Br)c1)NC1CCN(Cc2cccc(I)c2)CC1", "Sigma 2 receptor", "=", 59.3],
  ["O=C(Cc1cccc(Br)c1)NC1CCN(Cc2ccc(I)cc2)CC1", "Sigma 2 receptor", "=", 90.3],
  ["O=C(Cc1ccccc1)NC1CCN(Cc2ccc(C(F)(F)F)cc2)CC1", "Sigma 2 receptor", "=", 300]
]}
